Target: EGFR[T790M/C797S/d746-750] (Homo sapiens, UniProt P00533, C797S/DEL746-750/T790M)
Construct: purchased Carna Bio
Sequence (P00533 with tags, fused parts or gaps DEL746-750/T790M/C797S limits assumed): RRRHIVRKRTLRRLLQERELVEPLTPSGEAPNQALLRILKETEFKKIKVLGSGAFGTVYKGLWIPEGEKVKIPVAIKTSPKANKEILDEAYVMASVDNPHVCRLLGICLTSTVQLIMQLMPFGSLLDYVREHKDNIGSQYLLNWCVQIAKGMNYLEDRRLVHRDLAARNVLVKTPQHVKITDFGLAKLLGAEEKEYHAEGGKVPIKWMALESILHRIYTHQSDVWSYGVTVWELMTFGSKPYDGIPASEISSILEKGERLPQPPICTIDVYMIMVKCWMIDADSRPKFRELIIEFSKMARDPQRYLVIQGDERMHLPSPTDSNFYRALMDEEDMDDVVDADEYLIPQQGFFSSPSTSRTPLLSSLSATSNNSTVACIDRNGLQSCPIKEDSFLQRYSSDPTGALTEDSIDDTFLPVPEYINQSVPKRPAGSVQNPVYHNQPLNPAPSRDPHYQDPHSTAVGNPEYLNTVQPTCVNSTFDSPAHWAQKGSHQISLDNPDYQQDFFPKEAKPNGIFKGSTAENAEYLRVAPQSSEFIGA
Test: Inhibition of EGFR[T790M/C797S/d746-750] biochemical enzymatic activity (HTRF)
Conditions: EGFR T790M-C797S-Del19, 1 mM ATP, 1 h, room temperature, read-out: IC50 (nM) @T790M - C797S - Del19
Procedure: Biological Example 1: Inhibition of EGFR WT and Mutant Biochemical Enzymatic Activity The inhibition potency of compounds against these enzymes was assessed using Homogenous Time Resolved Fluorescence approach (HTRF, CisBio. Cat No. 62TKOPEJ). Inhibitory effects of the compounds were determined by measuring the enzymatic activity of EGFR enzyme phosphorylates 1 μM TK Substrate-biotin in the presence of 1 mM adenosine-5′-triphosphate (ATP) and varying concentrations of the test compound. […]
REPORTED_ENDPOINT: IC50 (nM)
Give a bare numeral; the unit nM is implied.

Field request: IC50 | item: CN1CCC12CCN(c1ccc3nc4n(c3c1)C13CCC(CC1)CN(CCOc1c(cnn1C)-c1cc(cn(C)c1=O)C(=O)N4)C3)CC2 5.2

Given the entry Cc1cc2cc(n1)-c1cnn(C3CC3)c1OCCN(CC(F)(F)F)CCn1c(nc3ccccc31)NC2=O , report its measured IC50. 3.6
